# measurement.target: human cloned 5-HT6 receptors (Homo sapiens)
# Sequence (P50406 whole entry): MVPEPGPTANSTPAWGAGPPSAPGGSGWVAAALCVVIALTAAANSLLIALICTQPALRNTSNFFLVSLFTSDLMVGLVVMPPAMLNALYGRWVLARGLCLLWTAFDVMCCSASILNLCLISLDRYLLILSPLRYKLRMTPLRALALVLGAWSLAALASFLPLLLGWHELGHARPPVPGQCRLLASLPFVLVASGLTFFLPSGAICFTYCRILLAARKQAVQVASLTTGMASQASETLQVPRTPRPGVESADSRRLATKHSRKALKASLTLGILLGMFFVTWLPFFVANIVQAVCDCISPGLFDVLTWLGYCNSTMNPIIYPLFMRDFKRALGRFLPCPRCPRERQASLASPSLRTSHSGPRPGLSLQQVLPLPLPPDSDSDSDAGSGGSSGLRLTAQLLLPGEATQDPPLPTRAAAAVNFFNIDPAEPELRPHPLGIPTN
Where a name gives a salt, the structure may show the parent alone.
quantity.name: pKi
// scale note: pKi = -log10(conc_M); give the bare number

[
  {
    "molecule": "O=S(=O)(c1cccc2ccccc12)c1cccc2oc(N3CCN(C4CCCC4)CC3)nc12",
    "pKi": 7.11
  },
  {
    "molecule": "O=S(=O)(c1cccc2ccccc12)c1cccc2oc(N3CCN(C4CCCCC4)CC3)nc12",
    "pKi": 7.04
  },
  {
    "molecule": "O=S(=O)(c1cccc2ccccc12)c1cccc2nc(N3CCNCC3)oc12 [Example 34, Dihydrochloride]",
    "pKi": 8.15
  },
  {
    "molecule": "CN1CCN(c2nc3c(S(=O)(=O)c4cccc5ccccc45)cccc3o2)CC1 [Example 22, Dihydrochloride]",
    "pKi": 8.00
  }
]

## Task Return reported pKi; argument: O=S(=O)(c1ccc2nc(N3CCNCC3)sc2c1)c1cccc2ccccc12 [Example 41, Dihydrochloride]
## Result 6.30

## Task # get_value(readout='pKi', item= O=S(=O)(c1ccccc1)c1cccc2oc(N3CCNCC3)nc12 )
## Result 7.17
